Each recorded value in this set is attributed to PubChem BioAssay AID330.

Tested on: P388 leukemia ip, CD2F1 mice, survival T/C
Test: NCI In Vivo Anticancer Drug Screen. Data for tumor model P388 Leukemia (intraperitoneal) in CD2F1 (CDF1) mice
Details: endpoint: median survival time; dose: 200.0 mg/kg/injection; schedule: Q01DX009 (ip); vehicle: saline with Tween-80; higher = longer survival
Method: The antitumor activity of compounds was measured in mice bearing transplantable tumors. Survival or tumor size were measured and the results are expressed as the measurement made in the treated group (T) divided by the measurement made in the vehicle treated control group (C). The tumor model used in this assay is P388 Leukemia (intraperitoneal) in CD2F1 (CDF1) mice
Inconclusive results and toxic doses are left out.

compound	assayed.system	T/C
Cc1cc(Cl)c(C)cc1Cl	P388 leukemia ip, CD2F1 mice, survival T/C	95 % of control
CSCc1cc(Cl)cc2c1OCOC2	P388 leukemia ip, CD2F1 mice, survival T/C	100 % of control
Cc1cccc(-c2nc(N)nc(N)n2)c1	P388 leukemia ip, CD2F1 mice, survival T/C	104 % of control
O=c1sc2ccccc2n1CCCl	P388 leukemia ip, CD2F1 mice, survival T/C	103 % of control
O=C1CCC(=O)N1CC(O)COc1ccccc1 (stereo unspecified)	P388 leukemia ip, CD2F1 mice, survival T/C	95 % of control
CC1CC(=O)Nc2ncccc2N1 (stereo unspecified)	P388 leukemia ip, CD2F1 mice, survival T/C	94 % of control
Cc1ccccc1N1C(=O)CC2(CCCC2)C1=O	P388 leukemia ip, CD2F1 mice, survival T/C	94 % of control
C=CN1C(=O)N(C=C)C(C)(CC(C)C)C1=O (stereo unspecified)	P388 leukemia ip, CD2F1 mice, survival T/C	112 % of control
O=C(NNC(=O)c1ccccc1O)Nc1ccc(Cl)cc1C(F)(F)F	P388 leukemia ip, CD2F1 mice, survival T/C	100 % of control
O=C(NCc1ccco1)C(=O)N/N=C/c1ccccc1O	P388 leukemia ip, CD2F1 mice, survival T/C	92 % of control
Cc1cc(C)c([N+](=O)[O-])c([N+](=O)[O-])c1C	P388 leukemia ip, CD2F1 mice, survival T/C	102 % of control
O=C(O)c1oc2ccccc2c1/C=C/c1ccccc1	P388 leukemia ip, CD2F1 mice, survival T/C	100 % of control
C#CCOc1ccc(Cl)cc1C(=O)O	P388 leukemia ip, CD2F1 mice, survival T/C	97 % of control
NC(=S)Oc1ccccc1	P388 leukemia ip, CD2F1 mice, survival T/C	93 % of control
C=CCCCCn1c2ccccc2c2c(C)c3cnccc3c(C)c21	P388 leukemia ip, CD2F1 mice, survival T/C	115 % of control
OCCSc1c(Cl)c(Cl)c(Cl)c(Cl)c1Cl	P388 leukemia ip, CD2F1 mice, survival T/C	113 % of control
COc1ccc(OC(=O)CCCl)cc1	P388 leukemia ip, CD2F1 mice, survival T/C	108 % of control
CC(=O)ON(C(C)=O)c1ccc(C(=O)OC2(C)CC(C)(C)N=N2)cc1 (stereo unspecified)	P388 leukemia ip, CD2F1 mice, survival T/C	106 % of control
O=C(NC1CC1)c1ccccc1	P388 leukemia ip, CD2F1 mice, survival T/C	87 % of control
CC(=O)c1ccccc1N=Nc1ccc(N(CCCl)CCCl)cc1	P388 leukemia ip, CD2F1 mice, survival T/C	112 % of control
CC(C)(C)C(=O)CC(Cc1nccc2ccccc12)c1ccccc1 (stereo unspecified)	P388 leukemia ip, CD2F1 mice, survival T/C	103 % of control
Cn1c2cc(Cl)c(Cl)cc2nc2cc3c(cc21)c(Cl)c(=O)c1ccccc13	P388 leukemia ip, CD2F1 mice, survival T/C	98 % of control
CCCN1CN2C(C)C(c3ccccc3)OC2C(C)(C)C1 (stereo unspecified)	P388 leukemia ip, CD2F1 mice, survival T/C	117 % of control
CC1=NN(C(=O)c2ccncc2)C(=O)C1N=Nc1ccc(S(=O)(=O)Nc2ccccn2)cc1 (stereo unspecified)	P388 leukemia ip, CD2F1 mice, survival T/C	103 % of control
CC(C)=CCc1c2c(c(O)c3c(=O)c(-c4ccc(O)cc4O)coc13)C=CC(C)(C)O2	P388 leukemia ip, CD2F1 mice, survival T/C	99 % of control
Cc1cccc(NC(=O)Nc2cccc(S(N)(=O)=O)c2)c1C	P388 leukemia ip, CD2F1 mice, survival T/C	90 % of control

###

test system: P388 leukemia ip, CD2F1 mice, survival T/C; test: NCI In Vivo Anticancer Drug Screen. Data for tumor model P388 Leukemia (intraperitoneal) in CD2F1 (CDF1) mice; conditions: endpoint: median survival time; dose: 50.0 mg/kg/injection; schedule: Q04DX003 (ip); vehicle: saline with Tween-80; higher = longer survival
Inconclusive results and toxic doses are left out.
Reported T/C is given for each of the following molecules.
measurement.name: T/C

molecule	assayed.system	endpoint.value
O=C(O)CNC(=O)C(CN1CC(=O)OC1c1ccc([N+](=O)[O-])cc1)N1C(=O)c2ccccc2C1=O (centres undefined)	P388 leukemia ip, CD2F1 mice, survival T/C	100 % of control
N#CCCN(CCc1ccccn1)C(=S)Nc1cccc(C(F)(F)F)c1	P388 leukemia ip, CD2F1 mice, survival T/C	99 % of control
CC(=O)CC(=O)c1ccc(C)cc1.CC(=O)CC(=O)c1ccc(C)cc1.[Ni]	P388 leukemia ip, CD2F1 mice, survival T/C	101 % of control
O=CN(c1ccccc1)c1ccccc1	P388 leukemia ip, CD2F1 mice, survival T/C	107 % of control
CCOP(=O)(N(CCCl)CCCl)N1CCc2ccccc2C1 (centres undefined)	P388 leukemia ip, CD2F1 mice, survival T/C	103 % of control
COc1ccc(NC2=NCCS2)cc1	P388 leukemia ip, CD2F1 mice, survival T/C	100 % of control
CN(C)c1ccc([N+]([O-])=NC#N)cc1	P388 leukemia ip, CD2F1 mice, survival T/C	95 % of control
NC(N)=O.NC(N)=O.NC(N)=O.NC(N)=O.NC(N)=O.NC(N)=O.[O-][Cl+3]([O-])([O-])O.[V]	P388 leukemia ip, CD2F1 mice, survival T/C	97 % of control
Cc1c(CNc2ccc(C(=O)NC(CC(=O)O)CC(=O)O)cc2)ccc2nc(N)nc(N)c12	P388 leukemia ip, CD2F1 mice, survival T/C	159 % of control

###

# T/C annotations
system: P388 leukemia ip, CD2F1 mice, survival T/C; experiment: NCI In Vivo Anticancer Drug Screen. Data for tumor model P388 Leukemia (intraperitoneal) in CD2F1 (CDF1) mice; details: endpoint: median survival time; dose: 100.0 mg/kg/injection; schedule: Q04DX003 (ip); vehicle: saline with Tween-80; higher = longer survival
Toxic doses and inconclusive results are not listed.

compound	T/C
NC(=S)N/N=C/c1cc(Cl)ccc1O	99 % of control
NC(C(=O)O)C(CC(=O)O)c1ccccc1 (configuration not stated)	100 % of control
O=CCC1CC2CCCCN2O1 (configuration not stated)	108 % of control
Cc1ccc(S(=O)(=O)NCCCl)cc1	114 % of control
Cc1cc2c3ccccc3[nH]c(=O)n2n1	110 % of control
O=C(O)CCCCc1ccc(CCCCC(=O)O)c2ccccc12	103 % of control
COc1ccc(-c2cc(=O)c3c(O)cc(O)cc3o2)cc1	90 % of control

###

Test system: P388 leukemia ip, CD2F1 mice, survival T/C
Test: NCI In Vivo Anticancer Drug Screen. Data for tumor model P388 Leukemia (intraperitoneal) in CD2F1 (CDF1) mice
Settings: endpoint: median survival time; dose: 12.5 mg/kg/injection; schedule: Q01DX009 (ip); vehicle: Klucel (hydroxypropylcellulose) (HPC); higher = longer survival
Method: The antitumor activity of compounds was measured in mice bearing transplantable tumors. Survival or tumor size were measured and the results are expressed as the measurement made in the treated group (T) divided by the measurement made in the vehicle treated control group (C). The tumor model used in this assay is P388 Leukemia (intraperitoneal) in CD2F1 (CDF1) mice
Inconclusive results and toxic doses are left out.
Reported T/C values are given for each entry in this list.

molecule	T/C
CC(C)CC(C(=O)O)N1C(=O)C=CC1=O (stereo not drawn)	93 % of control
Cn1/c(=N\NC(=O)c2ccncc2)sc2ccccc21	107 % of control
Nc1nc2ccc(CNc3ccc(C(=O)NC(CC(=O)O)C(=O)O)cc3)cc2c(=O)[nH]1 (stereo not drawn)	100 % of control

###

System: P388 leukemia ip, CD2F1 mice, survival T/C
Assay: NCI In Vivo Anticancer Drug Screen. Data for tumor model P388 Leukemia (intraperitoneal) in CD2F1 (CDF1) mice
Conditions: endpoint: median survival time; dose: 200.0 mg/kg/injection; schedule: Q01DX009 (ip); vehicle: saline with Tween-80; higher = longer survival
Method: The antitumor activity of compounds was measured in mice bearing transplantable tumors. Survival or tumor size were measured and the results are expressed as the measurement made in the treated group (T) divided by the measurement made in the vehicle treated control group (C). The tumor model used in this assay is P388 Leukemia (intraperitoneal) in CD2F1 (CDF1) mice
Inconclusive results and toxic doses are left out.
The following molecules are shown together with reported T/C values.
measurement.name: T/C

molecule	endpoint.value
CCN(CC)CCCNc1c(O)cc(C)c2sc3ccccc3c(=O)c12	100 % of control
O=C(Nc1ccc(Br)cc1C(F)(F)F)O/N=C(\c1ccccc1)C(O)c1ccccc1 (stereo unspecified)	100 % of control
COc1cccc(-c2nc3n(n2)CCc2ccccc2-3)c1	86 % of control
CC1(C)COC(c2cc(Br)ccc2Br)=N1	101 % of control
CC(C)(C)N=C(CCN1CCCCC1)Nc1ccc(Cl)cc1	111 % of control
CCCCOP(=O)(Nc1ccccc1)OCCCC	112 % of control
O=C(N=Cc1ccco1)C(=O)Nc1ccc(Cl)c([N+](=O)[O-])c1	96 % of control
O=C(Nc1cccc2c(O)c(N=Nc3ccc(S(=O)(=O)Nc4nccs4)cc3)cc(N=Nc3ccc(S(=O)(=O)Nc4nccs4)cc3)c12)C(Cl)Cl	98 % of control
CCOc1cc(/C=C2\SC(=O)N(CC)C2=O)ccc1O	90 % of control
Cn1cc([N+](=O)[O-])c([N+](=O)[O-])c1	102 % of control
Cc1cc(C(=O)N/N=C/c2cc(Cl)cc(Cl)c2O)c2cc(Br)ccc2n1	93 % of control
COc1ccc(Cl)cc1C(c1cc(Cl)ccc1OC)C(Cl)(Cl)Cl	100 % of control
COc1cc2ccnc(/C=N\NC(N)=S)c2cc1OC	118 % of control
Cc1ccc(NC(=O)Oc2ccc(F)cc2)c([N+](=O)[O-])c1	88 % of control
COc1ccc(C(=O)O)cc1	96 % of control
C/C(=N/NC(=O)c1ccccc1)c1ccccc1O	104 % of control
